Each entry below carries its reported Residual amount of NAD(P)H(%).
- System: NQO1
- protocolNotes: NAD(P)H recycling assay (decrease of NAD(P)H by NQO1-activating candidate compounds)
- Assay type: biochemical
- conditionLabel: relative amount of NAD(P)H, amount in the absence of the NQO1 activator taken to be 100

molecule	Residual amount of NAD(P)H(%)
CC1C2=C(OC1(C)C)c1ccccc1C(=O)C2=O (stereo not drawn)	52.75
CC1(C)CCC2=C(O1)c1ccccc1C(=O)C2=O	61.27
CC(C)=C/C(C)=C/C1(C)OC2=C(CC1C)C(=O)C(=O)c1ccccc12 (stereo not drawn)	98.06

----------
- protocolNotes: body weight and dietary intake of leptin receptor-deficient (ob/ob) mice
- Format: in vivo, mouse
- conditionLabel: after four weeks, relative to ob/ob mice without administration (control), method of Example 23

compound	Weight reduction In ob/ob mice (4 wk) (%)
CC1=CC(=O)c2ccccc2C1=O [Menadione, 2-Methyl-1,4-naphthoquinone, reference compound]	−2.7
CC1CC2=C(O1)c1ccccc1C(=O)C2=O (stereo not drawn)	−39.5
CC(C)C1=CC2OC3=C(CC2(C)CC1)C(=O)c1ccccc1C3=O (stereo not drawn)	0.3
CC(C)=C/C(C)=C/C1(C)OC2=C(CC1C)C(=O)C(=O)c1ccccc12 (stereo not drawn)	−2.2
CC1C2=C(OC1(C)C)c1ccccc1C(=O)C2=O (stereo not drawn)	−27.9
CC(C)=CC1(C)CCC2=C(O1)C(=O)c1ccccc1C2=O (stereo not drawn)	−0.7
CC1(C)CCC2=C(O1)C(=O)c1ccccc1C2=O	1.3
CC1(C)CCC2=C(O1)c1ccccc1C(=O)C2=O	−16.8
